assay_system: EBP (Homo sapiens, UniProt Q15125)
Construct: HEK293T cells were utilized as the source of EBP enzyme; endogenous in cells
Sequence (Q15125 whole entry): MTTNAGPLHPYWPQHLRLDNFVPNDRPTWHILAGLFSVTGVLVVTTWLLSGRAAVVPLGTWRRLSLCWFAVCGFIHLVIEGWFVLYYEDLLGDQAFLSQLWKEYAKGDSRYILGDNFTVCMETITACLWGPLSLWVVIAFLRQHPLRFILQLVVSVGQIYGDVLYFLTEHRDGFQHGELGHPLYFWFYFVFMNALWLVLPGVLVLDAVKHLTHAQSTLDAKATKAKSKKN
test_method_notes: EBP Functional Assay (EBP immunoaffinity LC-MS assay)
stated_conditions: HEK293T cells as source of EBP enzyme; substrate zymosterol-d5, 37° C. for 4 h; percent conversion to dehydrolathosterol-d5 by LC-APCI MRM MS
# maps each entry to its IC50

response.value for O=S(=O)(c1cccc2ccnn12)N1CCC2(CCC(N3CC4(COC4)C3)C2)CC1 (stereo not drawn) (field: IC50) = 100 to 250 nM

----------
assay_system: EBP (Homo sapiens, UniProt Q15125)
Construct: HEK293T cells were utilized as the source of EBP enzyme; endogenous in cells
test_method_notes: EBP Functional Assay (EBP immunoaffinity LC-MS assay)
stated_conditions: HEK293T cells as source of EBP enzyme; substrate zymosterol-d5, 37° C. for 4 h; percent conversion to dehydrolathosterol-d5 by LC-APCI MRM MS
property_label: IC50

molecule	assay_system	property_label	readout_value
COC1CN(C2COC3(CCN(S(=O)(=O)c4cnc(C5CC5)s4)CC3)C2)C1 (stereo not shown)	EBP (Homo sapiens, UniProt Q15125)	IC50	250 to 1500 nM
O=S(=O)(c1ccc(OC(F)F)cc1)N1CCC2(CC[C@H](N3C[C@H]4C[C@@H]3CO4)C2)CC1 (single isomer, unassigned) [Example 86b]	EBP (Homo sapiens, UniProt Q15125)	IC50	< 100 nM

Proceeding to the next molecule to report its IC50.
Note to self: IC50 of COc1ncc(C)cc1S(=O)(=O)N1CCC2(CC1)CC(N1CC3(COC3)C1)C2 with EBP (Homo sapiens, UniProt Q15125) was 100 to 250 nM

----------
assay_system: EBP (Homo sapiens, UniProt Q15125)
Construct: HEK293T cells were utilized as the source of EBP enzyme; endogenous in cells
test_method_notes: EBP Functional Assay (EBP immunoaffinity LC-MS assay)
stated_conditions: HEK293T cells as source of EBP enzyme; substrate zymosterol-d5, 37° C. for 4 h; percent conversion to dehydrolathosterol-d5 by LC-APCI MRM MS
Reported IC50 is given for each of the following molecules.

Past entries and their recorded results:
molecule	IC50
N#Cc1ccc(F)c(S(=O)(=O)N2CCC3(CC2)CC(N2C[C@H]4C[C@@H]2CO4)CO3)c1 (stereo partly shown)	250 to 1500 nM
O=S(=O)(c1ccc(OC(F)F)cc1)N1CCC2(CC[C@@H](N3C[C@@H]4C[C@H]3CO4)C2)CC1 (single isomer, unassigned) [Example 90a]	100 to 250 nM
Cc1cc(S(=O)(=O)N2CCC3(CC[C@H](N4CC5(COC5)C4)C3)CC2)n(C)n1 (single isomer, unassigned) [Example 68b]	100 to 250 nM

We next turn to a different molecule, shown below.
For record O=S(=O)(c1ccc(OC2CC2)cc1)N1CCC2(CCC(N3CC4(COC4)C3)C2)CC1 (stereo not shown) the listed IC50 is 250 to 1500 nM

----------
Listed next: entries and their corresponding pIC50.
assay_system: EBP (Homo sapiens, UniProt Q15125)
Construct: HEK293T cells were utilized as the source of EBP enzyme; endogenous in cells
test_method_notes: EBP Functional Assay (EBP immunoaffinity LC-MS assay)
stated_conditions: HEK293T cells as source of EBP enzyme; substrate zymosterol-d5, 37° C. for 4 h; percent conversion to dehydrolathosterol-d5 by LC-APCI MRM MS
pIC50: −log10 of the molar value.

molecule	readout_value
COc1ncc(S(=O)(=O)N2CCC3(CCC(N4CC5(COC5)C4)C3)CC2)cc1Cl (stereo not drawn)	> 7.00
N#Cc1cc(F)cc(S(=O)(=O)N2CCC3(CC2)CC(NCC2CCOCC2)CO3)c1 (stereo not drawn)	5.82 to 6.60
N#Cc1ccc(S(=O)(=O)N2CCC3(CCC(N4CC5(COC5)C4)C3)CC2)c(Cl)c1 (stereo not drawn)	6.60 to 7.00
CCn1ncc(S(=O)(=O)N2CCC3(CCC(N4CC5(COC5)C4)C3)CC2)n1 (stereo not drawn)	5.82 to 6.60

Sure, the documented pIC50 for Cc1nc(C(F)(F)F)ncc1S(=O)(=O)N1CCC2(CC1)CC(N(C)C1CC3(COC3)C1)CO2 (stereo not drawn) is > 7.00

Measured pIC50 of COCCN(C)C1COC2(CCN(S(=O)(=O)c3cc(C)cnc3OC)CC2)C1 (stereo not drawn) : 5.82 to 6.60

Value of measured pIC50 for the entry Cc1cc(S(=O)(=O)N2CCC3(CCC(N4CCC(C)(O)CC4)C3)CC2)n(C)n1 (stereo not drawn) : 6.60 to 7.00

----------
assay_system: EBP (Homo sapiens)
Construct: HEK293T cells were utilized as the source of EBP enzyme; endogenous in cells
test_method_notes: EBP Functional Assay (EBP immunoaffinity LC-MS assay)
stated_conditions: HEK293T cells as source of EBP enzyme; substrate zymosterol-d5, 37° C. for 4 h; percent conversion to dehydrolathosterol-d5 by LC-APCI MRM MS
pIC50: −log10 of the molar value.
The reader will find reported pIC50 values listed item by item below.

Examples with their reported pIC50 follow.
compound	pIC50
Cc1cc(S(=O)(=O)N2CCC3(CC[C@@H](N4CCOCC4)C3)CC2)n(C)n1 (single isomer, unassigned) [Example 22a]	5.82 to 6.60
Cc1nc(Cl)ccc1S(=O)(=O)N1CCC2(CC1)CC(N1C[C@H]3C[C@@H]1CO3)C2	> 7.00
O=S(=O)(c1cc(F)cc(F)c1)N1CCC2(CC1)C[C@H](N1CC3(COC3)C1)CO2 (single isomer, unassigned) [Example 119a]	> 7.00
COc1cc(S(=O)(=O)N2CCC3(CCC(N4CC5(COC5)C4)C3)CC2)c(F)cn1 (centres unmarked)	> 7.00

Lookup result for O=S(=O)(c1ccc2c(c1)OCCO2)N1CCC2(CCC(N3CC4(COC4)C3)C2)CC1 (centres unmarked) ; measured pIC50: > 7.00

Recorded result, Cc1ccc(S(=O)(=O)N2CCC3(CC2)C[C@H](N2CC(O)C2)CO3)c(Cl)c1 (single isomer, unassigned) [Example 53b] , pIC50: 6.60 to 7.00

Form field pIC50, entry Cc1ccc(S(=O)(=O)N2CCC3(CC2)CC(NC2CCOCC2)CO3)c(Cl)c1 (centres unmarked) : > 7.00

Entry under test: Cc1ccc(C#N)cc1S(=O)(=O)N1CCC2(CC1)C[C@H](N1CCOCC1)CO2 (single isomer, unassigned) [Example 15b] . Its pIC50 was 5.82 to 6.60

Input COc1ncc(C)cc1S(=O)(=O)N1CCC2(CCC(N3CC4(CCOC4)C3)C2)CC1 (centres unmarked) . Output pIC50: > 7.00

// recorded pIC50 for COCCN(C)C1COC2(CCN(S(=O)(=O)c3cc(C4CC4)nn3C)CC2)C1 (centres unmarked) : 5.82 to 6.60

// pIC50 value for O=S(=O)(c1ccc2cccnc2c1)N1CCC2(CCC(N3CC4(COC4)C3)C2)CC1 (centres unmarked) : 6.60 to 7.00

Notebook: O=S(=O)(c1ccc(OC(F)F)cc1)N1CCC2(CC[C@@H](N3C[C@H]4C[C@@H]3CO4)C2)CC1 (single isomer, unassigned) [Example 86a] , pIC50 read as > 7.00

Entry under test: O=S(=O)(c1ccc(OC(F)F)cc1)N1CCC2(CC1)CC(N1CC3(CCCOC3)C1)CO2 (centres unmarked) . Its pIC50 was 6.60 to 7.00

Per the records, this compound ( COc1ccc(S(=O)(=O)N2CCC3(CCC(N4CC(O)C4)C3)CC2)c(C)n1 (centres unmarked) ) has pIC50 equal to > 7.00

compound O=S(=O)(c1cc2cccnc2cc1F)N1CCC2(CCC(N3CCOCC3)C2)CC1 (centres unmarked) , pIC50 observed: 6.60 to 7.00

Item: COc1ncc(C)cc1S(=O)(=O)N1CCC2(CCC(NC3(C)CCOC3)C2)CC1 (centres unmarked) | pIC50: > 7.00

Entry N#Cc1cccc(S(=O)(=O)N2CCC3(CCC(N4CC5(COC5)C4)C3)CC2)c1F (centres unmarked) — recorded pIC50 = > 7.00

The compound listed as Cc1cc(S(=O)(=O)N2CCC3(CCC(N4C[C@H]5C[C@@H]4CO5)C3)CC2)n(C)n1 (some centres unmarked) has a reported pIC50 of 6.60 to 7.00

response.value for O=S(=O)(c1ccc(OC(F)F)cc1)N1CCC2(CCC(N3C[C@H]4C[C@@H]3CO4)C2)CC1 (some centres unmarked) (field: pIC50) = > 7.00

Record O=S(=O)(c1ccc(OC(F)F)cc1)N1CCC2(CC1)CC(N1CC3(CCOC3)C1)CO2 (centres unmarked) , field pIC50: 5.82 to 6.60

Cc1cc(S(=O)(=O)N2CCC3(CC2)CC(N2CCC4(CCOC4)C2)CO3)n(C)n1 (centres unmarked) yielded pIC50 of 5.82 to 6.60

Lookup result for O=S(=O)(c1cnc2cccc(F)c2c1)N1CCC2(CCC(N3CC4(COC4)C3)C2)CC1 (centres unmarked) ; measured pIC50: > 7.00

For reference, reported pIC50 for Cc1cc(S(=O)(=O)N2CCC3(CCC(N4CCOCC4)C3)CC2)n(C)n1 (centres unmarked) stands at 6.60 to 7.00

pIC50 in this record for COc1ccc(S(=O)(=O)N2CCC3(CCC(N4CC5(COC5)C4)C3)CC2)cn1 (centres unmarked) : 6.60 to 7.00

Looking up O=S(=O)(c1ccc(OC(F)F)cc1)N1CCC2(CC[C@H](N3C[C@@H]4C[C@H]3CO4)C2)CC1 (single isomer, unassigned) [Example 90b] , I see its pIC50 listed as > 7.00

Notebook: COc1cc(S(=O)(=O)N2CCC3(CCC(N4CC5(COC5)C4)C3)CC2)n(C)n1 (centres unmarked) , pIC50 read as > 7.00

Note to self: pIC50 recorded for O=S(=O)(c1cc2cccnc2cc1F)N1CCC2(CCC(N3CC4(COC4)C3)C2)CC1 (centres unmarked) was 6.60 to 7.00

The compound identified as O=S(=O)(c1ccc(OC(F)F)cc1)N1CCC2(CC1)C[C@H](N1CC[C@]3(CCOC3)C1)CO2 (single isomer, unassigned) [Example 30b] registered its pIC50 at 5.82 to 6.60

Recorded result, Cc1cc(S(=O)(=O)N2CCC3(CCC(N4C[C@@H]5C[C@H]4CO5)C3)CC2)n(C)n1 (some centres unmarked) , pIC50: 5.82 to 6.60

Sourced from patent US20250152574A1
